Target entity: ASC-mediated PC1 activation (Homo sapiens)
Construct: His; made in house; host or cells: PC1: Sf9 insect cells (baculovirus)
Sequence (P29466 whole entry): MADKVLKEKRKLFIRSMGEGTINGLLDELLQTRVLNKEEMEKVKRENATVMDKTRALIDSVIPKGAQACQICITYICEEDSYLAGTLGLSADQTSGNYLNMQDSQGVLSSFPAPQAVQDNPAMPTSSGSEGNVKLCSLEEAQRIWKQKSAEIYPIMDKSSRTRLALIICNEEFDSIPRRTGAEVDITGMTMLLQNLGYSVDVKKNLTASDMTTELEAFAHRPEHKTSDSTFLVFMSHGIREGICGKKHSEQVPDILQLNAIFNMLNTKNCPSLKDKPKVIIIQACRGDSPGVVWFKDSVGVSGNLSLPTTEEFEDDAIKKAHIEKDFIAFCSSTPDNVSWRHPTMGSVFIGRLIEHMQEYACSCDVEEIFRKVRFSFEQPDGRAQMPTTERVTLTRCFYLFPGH
Assay remarks: ASC-mediated PC1 reconstitution in vitro assay (primary screening)
Type: biochemical
Condition description: PC1 50 nM, ASC 300 nM, substrate Ac-WEHD-AFC; read-out: IC50
Reported endpoint: IC50

Compound string: COCCN1C(=O)/C(=C2/C(=O)Nc3ccc(Br)cc32)SC1=S
Reported endpoint: IC50
Reading: 1500 nM

Compound string: CCCCN1C(=O)/C(=C2\SC(=S)N(Cc3ccco3)C2=O)c2cc(Br)ccc21
Reported endpoint: IC50
Reading: 300 nM

Compound string: C=CCN1C(=O)/C(=C2/C(=O)Nc3ccccc32)SC1=S
Reported endpoint: IC50
Reading: 500 nM
